- ASSAY SUMMARY: budding yeast growth modifiers under rapamycin – strain BY4716, OD600, 96 h, primary screen (AID 1091); also: test concentration not given here
- CONDITION SET: S. cerevisiae BY4716 + rapamycin, higher = more signal, called active from +8 up or from −8 down
Would you mind sorting the entries by z-score according to these classes? group A = under -0.7, group B = from -0.7 up to 1, group C = 1 and over

COMPOUND: C=C(C(=O)CC[C@H](OC(=O)c1ccccc1-c1ccccc1C(=O)O)c1cccc(OCCO)c1)C(C)C
CATEGORY: group B

COMPOUND: C=CCNC(=O)[C@@H]1[C@H]2C(=O)O[C@H](c3ccccc3)[C@H](c3ccccc3)N2[C@H](c2ccccc2OCCO)[C@@]12C(=O)Nc1ccc(C#CCC(C(=O)OC)C(=O)OC)cc12
CATEGORY: group C

COMPOUND: CC(C)[Si](C#CCCCC#N)(O[C@H](c1ccccc1)c1cn(Cc2ccccc2)nn1)C(C)C
CATEGORY: group A

COMPOUND: COc1ccc(CCNC(=O)[C@@]2(Sc3ccc(C)cc3)CC(=O)N(Cc3ccccc3C(F)(F)F)[C@@H]2c2ccc(CO)cc2I)cc1
CATEGORY: group C

COMPOUND: CCCCC[C@H]1OC[C@@]23C=C(Br)[C@@H](CC12)[C@@]1(CO1)C3=O (stereo not given in full)
CATEGORY: group A

COMPOUND: CCCCCN1CC=CC23O[C@@H]4C=CCCOC(=O)C4[C@H]2C(=O)N(CCCCCCO)[C@@H]3C1=O (stereo not given in full)
CATEGORY: group B

COMPOUND: CC(=O)NCCCC[C@@H]1NC(=O)[C@@H]2C[C@H](C(=O)NCCCCCN)[C@H](c3cccc(OCCO)c3)N2C1=O
CATEGORY: group A

COMPOUND: COC(=O)[C@@]1(Cc2ccc(OC)cc2)[C@H]2c3cc(C(=O)N4CCCC4)n(CCc4c[nH]c5ccc(O)cc45)c3C[C@H]2CN1C(=O)c1ccccc1
CATEGORY: group B

COMPOUND: O=C1C2C=CC(C(O)c3cccc(O)c3)N(Nc3ccc([N+](=O)[O-])cc3)C2C(=O)N1c1ccccc1 (stereo not given)
CATEGORY: group C

COMPOUND: CN(C)C(=O)[C@]1(CCC(=O)OC(C)(C)C)N=C(c2ccc(OCCCO)cc2)O[C@@H]1c1ccccc1CN=[N+]=[N-]
CATEGORY: group B

COMPOUND: [N-]=[N+]=Nc1ccccc1C[C@]1(C(=O)NCCN2CCOCC2)COC(c2ccc(OCCCO)cc2)=N1
CATEGORY: group A

COMPOUND: CCCCCCc1nc(Cc2cc(OC)c(OC)c(OC)c2)cc2c1[Si](C(C)C)(C(C)C)OC2
CATEGORY: group B

COMPOUND: COc1ccc([Si](C)(C)[C@@H]2[C@@H](CCO)O[C@]3(C(=O)N(Cc4ccccc4)c4ccc(NC(=O)[C@H](C)O)cc43)[C@H]2C)cc1
CATEGORY: group C

COMPOUND: O=C(NCc1ccc(F)cc1)[C@H]1C[C@H]2C(=O)NCC(=O)N2[C@H]1c1ccc(O)cc1
CATEGORY: group C

* * *

# z-score values compiled below
- ASSAY SUMMARY: resazurin metabolic signal in HepG2 cells – cell-based, resazurin fluorescence, 24 h, PK04 Diversity Set, profiling panel (AID 1172); also: test concentration not given here
- CONDITION SET: HepG2 viability, higher = more signal

MOLECULE: C=CCNC(=O)[C@@H]1[C@H]2C(=O)O[C@H](c3ccccc3)[C@H](c3ccccc3)N2[C@H](c2ccccc2OCCO)[C@@]12C(=O)Nc1ccc(C#CCCO)cc12
z-score: 0.282
--
MOLECULE: N#Cc1ccc(NN2C(C(O)c3ccc(Br)cc3)C=CC3C(=O)N(c4ccccc4)C(=O)C32)cc1 (stereo not drawn)
z-score: -1.3
--
MOLECULE: CCCN1C(=O)[C@@]2(Cc3ccccc31)N=C(c1ccc(OCCCO)cc1)O[C@H]2c1ccccc1
z-score: 0.293
--
MOLECULE: COC(=O)[C@@]1(Cc2ccc(F)cc2)[C@H]2c3cc(C(=O)N(C)C)n(Cc4ccc(OC(F)(F)F)cc4)c3C[C@H]2CN1C(=O)c1ccccc1
z-score: -0.674
--
MOLECULE: CN(C)CCCCCCNC(=O)[C@@H]1C[C@@H]2C(=O)N3CCC[C@H]3C(=O)N2[C@@H]1c1cccc(OCCO)c1
z-score: -2.4
--
MOLECULE: COCCOC(=O)N1C(=O)[C@@]2(c3cc(C#CC4(O)CCCCCC4)ccc31)[C@H](c1ccc(O)cc1)N1[C@H](c3ccccc3)[C@H](c3ccccc3)OC(=O)[C@H]1[C@@H]2C(=O)N1CCN(c2ncccn2)CC1
z-score: 0.0439
--
MOLECULE: CCOC(=O)C1=CC[C@@H](c2ccccc2F)N(S(=O)(=O)c2ccc(C)cc2)[C@H]1c1ccccc1
z-score: 0.325
--
MOLECULE: CC(C)NC(=O)[C@@]1(c2ccc([N+](=O)[O-])cc2)CC(=O)N(C2CCCCC2)[C@@H]1c1ccc(CO)cc1
z-score: 1.2
--
MOLECULE: COC(=O)C(CC#Cc1ccc2c(c1)[C@]1(C(=O)N2)[C@H](c2ccc(O)cc2)N2[C@H](c3ccccc3)[C@H](c3ccccc3)OC(=O)[C@H]2[C@@H]1C(=O)NC[C@H](O)c1ccccc1)C(=O)OC
z-score: -0.0495
--
MOLECULE: CCOC(=O)C1=C[C@@H](C(C)(C)C)N(S(=O)(=O)c2ccc(C)cc2)[C@H]1c1cccc2ccccc12
z-score: -0.433
--
MOLECULE: COCCOC(=O)N1C(=O)[C@@]2(c3cc(C#CCCO)ccc31)[C@H](C(=O)Nc1nc3ccccc3s1)[C@H]1C(=O)O[C@H](c3ccccc3)[C@H](c3ccccc3)N1[C@@H]2c1ccc(O)cc1
z-score: -0.0461
--
MOLECULE: CCCNC(=O)[C@@]1(C)c2ccccc2C(=O)N(c2ccc(C)cn2)[C@H]1c1ccc(CO)cc1
z-score: -0.112
--
MOLECULE: C=CCN1C(=O)[C@]2(CCS(=O)(=O)c3ccccc3)N=C(c3ccc(OCCCO)cc3)O[C@@H]2c2ccccc21
z-score: -0.735
--
MOLECULE: C=CCNC(=O)[C@@H]1[C@H]2C(=O)O[C@H](c3ccccc3)[C@H](c3ccccc3)N2[C@H](c2ccc(O)cc2)[C@@]12C(=O)N(C(=O)OCCOC)c1ccc(C#CC3=CCCCC3)cc12
z-score: -0.411
--
MOLECULE: COCCOC(=O)N1C(=O)[C@@]2(c3cc(C#CCC(C(=O)OC)C(=O)OC)ccc31)[C@H](c1ccc(OCCO)cc1)N1[C@H](c3ccccc3)[C@H](c3ccccc3)OC(=O)[C@H]1[C@@H]2C(=O)N1CCc2cc(OC)c(OC)cc2C1
z-score: 0.125
--
MOLECULE: Cc1ccc(S[C@]2(C(=O)NCc3ccccc3)CC(=O)N(C3CCCCC3)[C@@H]2c2ccc(CO)cc2I)cc1
z-score: -0.636
--
MOLECULE: CCN(CC)c1ccc(N2CC=CC34O[C@@H]5/C=C\CCCOC(=O)C5[C@H]3C(=O)N(C(C)CO)[C@@H]4C2=O)cc1 (stereo partly drawn)
z-score: 0.242
--
MOLECULE: CCC1=C2CN(Cc3ccccc3)[C@@H](C(=O)Cc3ccccc3)C2C=CCC1 (stereo partly drawn)
z-score: 0.999
--
MOLECULE: C=CCC(OC(C)=O)[C@@H]1[C@@H](N(Cc2ccc(-c3cccc(C(F)(F)F)c3)o2)C(=O)Cc2ccc(OC)cc2)c2cc(OCCCO)ccc2N1C(=O)c1ccc(-c2ccccc2)cc1 (stereo partly drawn)
z-score: -1.35
--
MOLECULE: CCCC=C(CCC)[C@@H](NC(=O)c1cccs1)c1ccc(C(=O)OC)cc1
z-score: 0.756
--
MOLECULE: CCCCC(=C=CC[C@H](O)c1ccc(OCCO)cc1)CCO
z-score: -0.0738
--
MOLECULE: CC1CC/C=C\[C@H]2OC34C=CCN(c5ccc6ccccc6c5)C(=O)[C@H]3N(CCCO)C(=O)[C@@H]4C2C(=O)O1 (stereo partly drawn)
z-score: -0.829
--
MOLECULE: CCCC=C(CCC)[C@@H](NP(=O)(c1ccccc1)c1ccccc1)c1ccc(-c2ccccc2)cc1
z-score: 0.127
--
MOLECULE: COC(=O)[C@@]1(Cc2ccc(OC)cc2)[C@H]2c3cc(C(=O)N(C)C)n(Cc4ccc(C)o4)c3C[C@H]2CN1C(=O)c1ccccc1
z-score: -0.239
--
MOLECULE: C=C(/C(=C/C[C@H](OC(C)=O)c1ccc(CO)o1)c1cnc2ccccc2c1)C(C)C
z-score: 0.523
--
MOLECULE: CC[C@@H]1C=C(C(=O)O)[C@H](c2ccc(C#N)cc2)N1S(=O)(=O)c1ccc(C)cc1
z-score: -0.835
--
MOLECULE: CC(C)N1C(=O)c2ccccc2[C@@H](C(=O)NCCN2CCOCC2)[C@@H]1c1ccc(CO)cc1
z-score: -0.229
--
MOLECULE: CCOC(=O)C=Cc1cccc(C)c1O
z-score: -0.156
